experiment: molar heat capacity at constant pressure
setup_conditions: 353.15 K; 101.33 kPa; Liquid; Small sample (50 mg) DSC
experimental_readout: molar heat capacity at constant pressure (J/K/mol)
Could you give me the number in J/K/mol? Just the number is fine.

Please fill in: molar heat capacity at constant pressure reported for CC(=O)[O-].CCCCCCCCCCCCCC[P+](CCCCCC)(CCCCCC)CCCCCC [trihexyl(tetradecyl)phosphonium acetate] = 1158.5

* * *

# key: entry, value: viscosity
setup_conditions: 313.2 K; 101.33 kPa; Liquid; Cone and plate viscometry
Only the number, expressed in mPa·s, is required.

compound	measure_unit	data_value
CCCCCC(=O)[O-].CCCCCCCCCCCCCC[P+](CCCCCC)(CCCCCC)CCCCCC [trihexyl(tetradecyl)phosphonium hexanoate]	mPa·s	155.8
CC(=O)[O-].CCCCCCCCCCCCCC[P+](CCCCCC)(CCCCCC)CCCCCC [trihexyl(tetradecyl)phosphonium acetate]	mPa·s	92.23
CCCCCCCCCC(=O)[O-].CCCCCCCCCCCCCC[P+](CCCCCC)(CCCCCC)CCCCCC [trihexyltetradecylphosphonium decanoate]	mPa·s	189.8

viscosity reported for this compound CCCCCCCC(=O)[O-].CCCCCCCCCCCCCC[P+](CCCCCC)(CCCCCC)CCCCCC [trihexyl(tetradecyl)phosphonium octanoate] : 179.3

Record CCCC(=O)[O-].CCCCCCCCCCCCCC[P+](CCCCCC)(CCCCCC)CCCCCC [trihexyl(tetradecyl)phosphonium butyrate] . Reported viscosity: 115

* * *

experiment: molar heat capacity at constant pressure
setup_conditions: 358.15 K; 101.33 kPa; Liquid; Small sample (50 mg) DSC
experimental_readout: molar heat capacity at constant pressure (J/K/mol)
The answer is to be given in J/K/mol; state only the numeric part.

Recorded molar heat capacity at constant pressure, per entry:
molecule	molar heat capacity at constant pressure [J/K/mol]
CCCC(=O)[O-].CCCCCCCCCCCCCC[P+](CCCCCC)(CCCCCC)CCCCCC [trihexyl(tetradecyl)phosphonium butyrate]	1188.7
CCCCCCCCCC(=O)[O-].CCCCCCCCCCCCCC[P+](CCCCCC)(CCCCCC)CCCCCC [trihexyltetradecylphosphonium decanoate]	1285.3
CCCCCC(=O)[O-].CCCCCCCCCCCCCC[P+](CCCCCC)(CCCCCC)CCCCCC [trihexyl(tetradecyl)phosphonium hexanoate]	1227.4
CC(=O)[O-].CCCCCCCCCCCCCC[P+](CCCCCC)(CCCCCC)CCCCCC [trihexyl(tetradecyl)phosphonium acetate]	1166.7

Documented molar heat capacity at constant pressure of CCCCCCCC(=O)[O-].CCCCCCCCCCCCCC[P+](CCCCCC)(CCCCCC)CCCCCC [trihexyl(tetradecyl)phosphonium octanoate] : 1242.2

* * *

setup_conditions: 338.2 K; 101.33 kPa; Liquid; Cone and plate viscometry
Measured viscosity of individual entries
Hi! Could you send only the number? It should be in mPa·s, unit omitted.

Below, each entry is followed by its recorded viscosity result.
compound	measure_unit	viscosity
CCCCCCCC(=O)[O-].CCCCCCCCCCCCCC[P+](CCCCCC)(CCCCCC)CCCCCC [trihexyl(tetradecyl)phosphonium octanoate]	mPa·s	62.47
CCCC(=O)[O-].CCCCCCCCCCCCCC[P+](CCCCCC)(CCCCCC)CCCCCC [trihexyl(tetradecyl)phosphonium butyrate]	mPa·s	41.11
CCCCCC(=O)[O-].CCCCCCCCCCCCCC[P+](CCCCCC)(CCCCCC)CCCCCC [trihexyl(tetradecyl)phosphonium hexanoate]	mPa·s	55.39
CCCCCCCCCC(=O)[O-].CCCCCCCCCCCCCC[P+](CCCCCC)(CCCCCC)CCCCCC [trihexyltetradecylphosphonium decanoate]	mPa·s	68.76

Next:
Recorded viscosity (compound CC(=O)[O-].CCCCCCCCCCCCCC[P+](CCCCCC)(CCCCCC)CCCCCC [trihexyl(tetradecyl)phosphonium acetate] ): 33.78
